Hey, just so you know, these numbers are from patent US12319672B2.

Target: human Gal-1 (hGal-1)
Sequence (P09382 2-135 limits assumed): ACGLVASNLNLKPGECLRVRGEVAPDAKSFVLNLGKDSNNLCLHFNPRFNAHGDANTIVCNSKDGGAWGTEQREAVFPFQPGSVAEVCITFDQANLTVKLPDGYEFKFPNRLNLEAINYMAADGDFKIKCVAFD
Assay: Competitive binding assay: binding of biotinylated hGal-1 to microplate-adsorbed asialofetuin (ASF)
Conditions: Activities on hGal-1; mean values of several measurements
Method: Evaluation of Compound Inhibitory Activity (IC50) The inhibitory activity of compounds is determined in competitive binding assays. This spectrophotometric assay measures the binding of biotinylated human Gal-3 (hGal-3) or human Gal-1 (hGal-1), respectively, to a microplate-adsorbed glycoprotein, asialofetuin (ASF) (Proc Natl Acad Sci USA. 2013 Mar. 26; 110(13):5052-7.). […] The calculated IC50 values may fluctuate depending on the daily assay performance. […]
pIC50: −log10 of the molar value.
ASSAY_METRIC: pIC50

Consider the following illustrative entries.
MOLECULE	TARGET_OF_ASSAY	pIC50
CO[C@@H]1[C@@H](n2cc(-c3cc(F)c(F)c(F)c3)nn2)[C@@H](O)[C@@H](CO)O[C@@H]1Cc1cc(C2(O)CCCC2)on1 [Ex 1.72]	human Gal-1 (hGal-1)	5.29
CO[C@@H]1[C@@H](n2cc(-c3cc(F)c(F)c(Cl)c3)nn2)[C@@H](O)[C@@H](CO)O[C@@H]1Cc1cc(C2CCCCC2)on1 [Ex 1.218]	human Gal-1 (hGal-1)	4.97
CO[C@@H]1[C@@H](n2cc(-c3cc(F)c(F)c(F)c3)nn2)[C@@H](O)[C@@H](CO)O[C@@H]1Cc1cc(C2CCOCC2)on1 [Ex 1.64]	human Gal-1 (hGal-1)	5.07
CO[C@@H]1[C@@H](n2cc(-c3cc(F)c(F)c(F)c3)nn2)[C@@H](O)[C@@H](CO)O[C@@H]1CC1=NOC(C2CCNCC2)C1 (mixture of isomers) [Example 3.36]	human Gal-1 (hGal-1)	5.09

I = CO[C@@H]1[C@@H](n2cc(-c3cc(F)c(F)c(F)c3)nn2)[C@@H](O)[C@@H](CO)O[C@@H]1C[C@H]1CC(C2CCN(C(=O)OC(C)(C)C)CC2)=NO1 [Ex 1.47]
II = CO[C@@H]1[C@@H](n2cc(-c3ccc(F)c(F)c3F)nn2)[C@@H](O)[C@@H](CO)O[C@@H]1Cc1cc(C(C)(C)C)no1 [Ex 1.250]
Exercise: Which item exceeds the other in pIC50, I or II ? Your choice should be expressed through its label.
Key: II
(II: 6.60, I: 5.18)

---

pIC50: −log10 of the molar value.
Target or system human Gal-3 (hGal-3) (Homo sapiens (Human), UniProt P17931); recorded quantity pIC50.
ASSAY_METRIC: pIC50

Consider the following illustrative entries.
MOLECULE	VALUE_REPORTED
CO[C@@H]1[C@@H](n2cc(-c3cc(F)c(C)cc3F)nn2)[C@@H](O)[C@@H](CO)O[C@@H]1Cc1cc(C(C)(C)C)on1	6.68
CO[C@@H]1[C@@H](n2cc(-c3cc(F)c(F)c(F)c3)nn2)[C@@H](O)[C@@H](CO)O[C@@H]1Cc1cc(C2CCN(CC3COC3)CC2)on1	6.25
CO[C@@H]1[C@@H](n2cc(-c3cc(F)c(C)c(F)c3)nn2)[C@@H](O)[C@@H](CO)O[C@@H]1Cc1cc(C2CCN(S(C)(=O)=O)CC2)on1	7.41
CO[C@@H]1[C@@H](n2cc(-c3ccc(C)c(F)c3F)nn2)[C@@H](O)[C@@H](CO)O[C@@H]1Cc1cc(C2(CO)CC2)on1	6.85

A = CC(=O)O[C@@H]1[C@@H](n2cc(-c3ccc(C)c(F)c3F)nn2)[C@@H](O)[C@@H](CO)O[C@@H]1Cc1cc([C@@H]2CCC[C@H]2O)on1
B = CO[C@@H]1[C@@H](n2cc(-c3cccc(F)c3)nn2)[C@@H](O)[C@@H](CO)O[C@@H]1CC1CC(C2CCN(C(=O)OC(C)(C)C)CC2)=NO1 (stereo partly drawn)
Exercise: Of A versus B , which is the one with smaller reported pIC50? Your choice should be expressed through its label.
Key: B
(B: 6.36, A: 7.40)
